Origin of values: patent US9145354B2

# EXPERIMENTAL_TARGET: full length NS3/4a (Hepatitis C virus genotype 1b (isolate BK) (HCV))
# Sequence (P26663 1027-1657): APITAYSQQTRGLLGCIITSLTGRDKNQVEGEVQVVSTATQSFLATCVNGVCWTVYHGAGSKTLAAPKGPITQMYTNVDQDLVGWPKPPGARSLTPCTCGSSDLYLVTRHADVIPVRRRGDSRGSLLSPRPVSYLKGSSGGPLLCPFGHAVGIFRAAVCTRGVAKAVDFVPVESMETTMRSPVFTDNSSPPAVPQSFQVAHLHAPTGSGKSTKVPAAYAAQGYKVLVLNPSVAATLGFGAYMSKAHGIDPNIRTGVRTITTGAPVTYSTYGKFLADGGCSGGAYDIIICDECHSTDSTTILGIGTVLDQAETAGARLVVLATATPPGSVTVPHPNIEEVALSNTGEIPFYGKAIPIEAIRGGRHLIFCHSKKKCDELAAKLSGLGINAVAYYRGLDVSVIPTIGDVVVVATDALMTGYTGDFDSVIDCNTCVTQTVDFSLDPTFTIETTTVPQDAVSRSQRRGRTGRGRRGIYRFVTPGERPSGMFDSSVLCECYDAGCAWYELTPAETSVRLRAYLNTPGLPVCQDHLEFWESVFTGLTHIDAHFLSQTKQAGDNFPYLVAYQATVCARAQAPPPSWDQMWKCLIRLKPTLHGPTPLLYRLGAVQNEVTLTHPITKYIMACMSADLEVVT
# ASSAY_INFO: NS3 Protease Assay (Example A), FRET-based
# Format: biochemical
# MEASUREMENT_SETUP: @ 100 uM
MEASURED_PROPERTY: inhibition at 100 µM (%)
Please state the figure in %; there is no need to write the unit.

# query: inhibition at 100 µM of entry CC[C@@H](N)c1ccc(O)c(C(=O)c2ccccc2)c1F [Example 44] 30

What do we get for CC[C@@H](N[C@H](C)CC(N)=O)c1ccc(OC)c(C(=O)c2ccc(F)cc2)c1F [Example 199] ? 32

What do we get for CC[C@@H](N)c1ccc(Cl)c(C(=O)c2cncc(OC)c2)c1F [Example 17] ? 65

What do we get for CC[C@@H](NCCn1cccn1)c1ccc(Cl)c(C(=O)c2cccnc2)c1F [Example 306] ? 59

###

# EXPERIMENTAL_TARGET: full length NS3/4a (Hepatitis C virus genotype 1b (isolate BK) (HCV))
# ASSAY_INFO: NS3 Protease Assay (Example A), FRET-based
# Assay type: biochemical
# MEASUREMENT_SETUP: stated as IC50 less than 30 μM or at least 40% inhibition at a concentration of 100 μM; read-out: IC50 against the protease activity of the full length NS3/4a
pIC50: −log10 of the molar value.
MEASURED_PROPERTY: pIC50

Here is how some molecules turned out for pIC50.
CC[C@@H](N[C@H](C)CC(N)=O)c1ccc(Cl)c(C(=O)c2ccncn2)c1F [Example 100] ... > 4.52
CC[C@@H](N)c1ccc(Cl)c(C(=O)c2ccc(-n3cc(CO)cn3)nc2)c1F [Example 46] ... > 4.52
CC[C@@H](NC1CC1)c1ccc(Cl)c(C(=O)c2cccnc2)c1F [Example 296] ... > 4.52

We now examine a further molecule.
Which measured pIC50 belongs to CC[C@@H](N[C@H](C)CO)c1ccc(Cl)c(C(=O)c2cccnc2)c1F [Example 166] , tested on full length NS3/4a (Hepatitis C virus genotype 1b (isolate BK) (HCV))? > 4.52

###

# EXPERIMENTAL_TARGET: full length NS3/4a (Hepatitis C virus genotype 1b (isolate BK) (HCV))
# ASSAY_INFO: NS3 Protease Assay (Example A), FRET-based
# Assay type: biochemical
# MEASUREMENT_SETUP: read-out: IC50 against the protease activity of the full length NS3/4a
pIC50: −log10 of the molar value.
MEASURED_PROPERTY: pIC50

Which measured pIC50 belongs to CCOC(=O)c1cnn(-c2ccc(C(=O)c3c(Cl)ccc([C@H](N)CC)c3F)cn2)c1 , tested on full length NS3/4a (Hepatitis C virus genotype 1b (isolate BK) (HCV))? 5.30 to 6.00

What do we get for CC[C@@H](N)c1ccc(Cl)c(C(=O)c2ccccc2)c1F ? > 6.00

What do we get for C[C@H](CC(N)=O)N[C@@H](c1ccc(Cl)c(C(=O)c2ccc(C#N)cn2)c1F)C1CC1 ? 5.30 to 6.00

What do we get for CC[C@@H](N[C@H](C)CC(N)=O)c1ccc(Cl)c(C(=O)c2cccnc2)c1F ? 5.30 to 6.00

###

# ASSAY_INFO: Replicon Assay (Example B), Alamar Blue cytotoxicity CC50
# Format: cell-based
# MEASUREMENT_SETUP: human, lower value of the cell pair
Overview of recorded CC50 at 72 h for various compounds

Here is how some compounds turned out for CC50 at 72 h.
CC[C@@H](N[C@@H](C)CC(N)=O)c1ccc(OC)c(C(=O)c2ccc(N)nc2)c1F ... > 1000 nM
N[C@@H](c1ccc(Cl)c(C(=O)c2ccccc2)c1F)C1CC1 ... > 3000 nM
[2H]C([2H])([2H])C([2H])([2H])[C@@H](N[C@@H](C)CC(N)=O)c1ccc(Cl)c(C(=O)c2ccccc2)c1F ... > 3000 nM
CC[C@H](N[C@@H](C)CO)c1ccc(Cl)c(C(=O)c2ccc(N)nc2)c1F ... > 3000 nM
[2H]C([2H])([2H])C([2H])([2H])[C@@H](N[C@@H](C)CC(N)=O)c1ccc(Cl)c(C(=O)c2ccc3c(c2)OCC(=O)N3)c1F ... > 3000 nM

# query: CC50 at 72 h of entry CC[C@@H](N[C@@H](C)CC(N)=O)c1ccc(Cl)c(C(=O)c2ccc3c(n2)NC(=O)CO3)c1F > 3000 nM
